Tested on: COS Cell
Experiment: COS Cell IC50, cell-based assay (procedure of WO 95/10516)
Assay Metric: IC50 (nM)
Please give a number only; it is taken to be in nM.

Ask | Sample CC(=O)O[C@H]1CC[C@@H](C(=O)N2CCC([C@H]3c4ncc(Br)cc4CCc4cc(Cl)cc(Br)c43)CC2)CC1 — what was its IC50?
Reply | 30

====

Here, each record is paired with measured IC50 data.
Target: farnesyl protein transferase (Homo sapiens, UniProt P49354+P49356)
Assay: FPT IC50, inhibition of farnesyl protein transferase, in vitro enzyme assay (procedure of WO 95/10516)
Settings: one range stated for the whole group of listed compounds, no individual values

Illustrative cases are given below, each with its answer.
Molecule: O=C(C=C1CCC2(CC1)OCCO2)N1CCC([C@H]2c3ncc(Br)cc3CCc3cc(Cl)cc(Br)c32)CC1
Assayed System: farnesyl protein transferase (Homo sapiens, UniProt P49354+P49356)
Result: ≥ 1.9 nM

Molecule: O=C(O)CON=C1CCC(CC(=O)N2CCC([C@H]3c4ncc(Br)cc4CCc4cc(Cl)cc(Br)c43)CC2)CC1 (stereo partly shown)
Assayed System: farnesyl protein transferase (Homo sapiens, UniProt P49354+P49356)
Result: ≥ 1.9 nM

Molecule: CON=C1CCN(CC(=O)N2CCC([C@H]3c4ncc(Br)cc4CCc4cc(Cl)cc(Br)c43)CC2)CC1
Assayed System: farnesyl protein transferase (Homo sapiens, UniProt P49354+P49356)
Result: ≥ 1.9 nM

Molecule: NC1CCCC(C(=O)N2CCC([C@H]3c4ncc(Br)cc4CCc4cc(Cl)cc(Br)c43)CC2)C1 (stereo partly shown)
Assayed System: farnesyl protein transferase (Homo sapiens, UniProt P49354+P49356)
Result: ≥ 1.9 nM

Molecule: O=C1CCCCC1CCC(=O)N1CCC([C@H]2c3ncc(Br)cc3CCc3cc(Cl)cc(Br)c32)CC1 (stereo partly shown)
Assayed System: farnesyl protein transferase (Homo sapiens, UniProt P49354+P49356)
Result: ≥ 1.9 nM

Molecule: NC(=O)NC1CCCC(C(=O)N2CCC([C@H]3c4ncc(Br)cc4CCc4cc(Cl)cc(Br)c43)CC2)C1 (stereo partly shown)
Assayed System: farnesyl protein transferase (Homo sapiens, UniProt P49354+P49356)
Result: ≥ 1.9 nM

Here is another molecule to look at.
Ask | // IC50 lookup, key: O=C(C1CCC2(CC1)OCCO2)N1CCC([C@H]2c3ncc(Br)cc3CCc3cc(Cl)cc(Br)c32)CC1
Reply | ≥ 1.9 nM

meta.source: patent EP0993459B1
